- Experimental system: human GPR119 (Homo sapiens)
- Construct: expression vector for human GPR119 cDNA (Acc. No. NP_848566); Min-6/hGPR119
- Sequence (Q8TDV5 whole entry): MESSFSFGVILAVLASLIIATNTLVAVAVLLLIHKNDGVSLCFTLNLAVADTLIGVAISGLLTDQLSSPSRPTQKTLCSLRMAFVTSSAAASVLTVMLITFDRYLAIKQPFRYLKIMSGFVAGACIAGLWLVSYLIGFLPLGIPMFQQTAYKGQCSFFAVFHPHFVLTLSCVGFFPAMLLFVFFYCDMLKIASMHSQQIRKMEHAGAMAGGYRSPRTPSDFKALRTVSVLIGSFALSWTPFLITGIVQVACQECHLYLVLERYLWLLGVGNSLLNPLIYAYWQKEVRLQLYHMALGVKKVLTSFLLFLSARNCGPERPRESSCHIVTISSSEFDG
- Protocol summary: AlphaScreen cAMP assay in MIN6 cells stably transfected with human GPR119
- Assay setup: Min-6/hGPR119 cells, 45 min at room temperature
# pEC50 values compiled below
Quick note: pEC50 means taking -log10 of the concentration in moles per liter.

Below, 2 molecules whose answers are already recorded.
[[record]]
sample_smiles = "CC(C)(C)OC(=O)N1CCC(N(C(=O)c2cnc(-c3cccc(C#N)c3)nc2)C2CC2)CC1"
value_kind = "pEC50"
measured_number = 6.77

[[record]]
sample_smiles = "CN(Cc1ccncc1)C(=O)c1ccc(-c2ncc(C(=O)N(C3CC3)C3CCN(C(=O)OC(C)(C)C)CC3)cn2)cc1"
value_kind = "pEC50"
measured_number = 6.68


Could you now look at the following molecule, please?
// molecule CC(C)(C)OC(=O)N1CCC(N(C(=O)c2cnc(-c3ccc(CC(=O)N4CC(F)(F)C4)cc3)nc2)C2CC2)CC1 , assay human GPR119 (Homo sapiens), pEC50 value: 6.83

----------
- Experimental system: human GPR119 (Homo sapiens)
- Construct: expression vector for human GPR119 cDNA (Acc. No. NP_848566); Min-6/hGPR119
- Protocol summary: AlphaScreen cAMP assay in MIN6 cells stably transfected with human GPR119
- Assay setup: Min-6/hGPR119 cells, 45 min at room temperature
Value kind: pEC50
Recall that pEC50 is obtained by taking minus log10 of the concentration measured in molar.

Consider the reported pEC50 for these molecules:
[[record]]
molecule = "COC(=O)c1ccc(-n2cnc(C(=O)N(C3CC3)C3CCN(C(=O)OC(C)(C)C)CC3)c2)c(F)c1 [Example 15]"
experimental_system = "human GPR119 (Homo sapiens)"
measured_number = 6.80

[[record]]
molecule = "CC(C)(C)OC(=O)N1CCC(N(C(=O)c2ncc(-c3ccc(C#N)cc3)o2)C2CC2)CC1 [Example 37]"
experimental_system = "human GPR119 (Homo sapiens)"
measured_number = 6.85

[[record]]
molecule = "CC(C)(C)OC(=O)N1CCC(N(C(=O)c2cnc(-c3ccc(C(=O)Nc4ccn[nH]4)c(F)c3)nc2)C2CC2)CC1 [Example 112]"
experimental_system = "human GPR119 (Homo sapiens)"
measured_number = 6.66


Continue with the molecule presented below.
// CC(C)(C)OC(=O)N1CCC(N(C(=O)c2cnc(-c3ccc(C(=O)NCc4ccncc4)cc3)nc2)C2CC2)CC1 [Example 241] : pEC50 value = 6.61

Values from patent US20140045823A1
